Values from paper PMC8186431

assayedSystem: PaPhzS (Pseudomonas aeruginosa, UniProt Q9HWG9)
Construct: implied by pET28a and the HisTrap purification; made in house; host or cells: E. coli Rosetta (DE3)
Sequence (Q9HWG9 whole entry): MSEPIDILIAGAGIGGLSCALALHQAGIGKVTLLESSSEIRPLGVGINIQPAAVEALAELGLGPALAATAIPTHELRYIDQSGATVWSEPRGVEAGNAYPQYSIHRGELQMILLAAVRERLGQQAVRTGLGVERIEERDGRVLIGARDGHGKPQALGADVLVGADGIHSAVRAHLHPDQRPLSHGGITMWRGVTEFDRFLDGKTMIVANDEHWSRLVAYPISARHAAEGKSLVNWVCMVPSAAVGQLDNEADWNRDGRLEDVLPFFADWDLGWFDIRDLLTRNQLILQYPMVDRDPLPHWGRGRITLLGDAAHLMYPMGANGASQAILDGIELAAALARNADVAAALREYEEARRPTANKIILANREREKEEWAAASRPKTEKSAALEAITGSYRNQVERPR
assay: Compounds' affinity calculation by TSA (fraction of unfolded protein, DSFit software)
Type: binding, P. aeruginosa
conditionInfo: BEI: (pKd/MW)×1000, from DSFit Kd

compound: O=C1NC(=O)C(=Cc2cc(Cl)cc(Br)c2O)S1 [Compound 15]
assayedSystem: PaPhzS (Pseudomonas aeruginosa, UniProt Q9HWG9)
BEI (DSFit software): 13.3
--
compound: O=C1NC(=O)/C(=C/c2cc(Cl)ccc2O)S1 [Compound 16]
assayedSystem: PaPhzS (Pseudomonas aeruginosa, UniProt Q9HWG9)
BEI (DSFit software): 21.0
--
compound: COc1ccc(/C=C2\SC(=O)NC2=O)c(Br)c1O [Compound 20]
assayedSystem: PaPhzS (Pseudomonas aeruginosa, UniProt Q9HWG9)
BEI (DSFit software): 15.0
--
compound: COCn1cc(/C=C2\SC(=O)NC2=O)c2ccccc21 [Compound 33]
assayedSystem: PaPhzS (Pseudomonas aeruginosa, UniProt Q9HWG9)
BEI (DSFit software): 14.9
--
compound: O=C1NC(=O)/C(=C\c2ccc(OCc3nc4ccccc4c(=O)n3-c3ccccc3)cc2)S1 [A, reference compound]
assayedSystem: PaPhzS (Pseudomonas aeruginosa, UniProt Q9HWG9)
BEI (DSFit software): 11.0
